These measurements were taken from the supplement of paper PMC6555819.

- Tested on: RXRa DBDmut IVT, anti-RXR (DBD mutation: RXRa K156A/R161A, NR concentration 90 nM)
- assay.details: PBM binding z-score (relative to random genomic background probes); higher = stronger binding; sequences stand for … in GC…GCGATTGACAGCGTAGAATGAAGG
# PBM binding z-score annotations
Enter the number alone.

TTGCCTAGGTCAGATCGGGCCAGTATACGCTATA : 0.0965
AGAATTAGGTTACCAAAGATCAGGGAAACGCTTG : 0.172

Exercise: Supply measured PBM binding z-score of "CCTACTGAGCCATTCAGAGGTCATTGATCATATG" in your reply.
Solution: 1.66

###

- Test system: PPARg:RXRa (NR concentration 180 nM, RXRa partner concentration 90 nM)
- assay.details: PBM binding z-score (relative to random genomic background probes); higher = stronger binding; sequences stand for … in GC…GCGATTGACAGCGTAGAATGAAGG
recorded.metric: PBM binding z-score

Below, each entry is followed by its recorded PBM binding z-score result.
AGAACGAGGGCAATGAGTTGATATCACGGGTGGC : 1.86
CCTACTGGGCCATTCAGAGGTAATTGATCATATG : 0.262
CCTAGTTTGTCAAGGTCACACACGCTATAGGTAC : 2.44
TCTCGGAGGACACGAAAGGTCAGAGCGCGACATC : 1.36
CGTCATAGTTCAAGGTAACGTAACAGAAAGCAGC : 1.29

Exercise: Fill in: PBM binding z-score on PPARg:RXRa (NR concentration 180 nM, RXRa partner concentration 90 nM), entry "ATCTCTAGGTAAAAGTTCAGAGAATCCCGAGGAT"
Solution: 8.44

Exercise: Fill in: PBM binding z-score on PPARg:RXRa (NR concentration 180 nM, RXRa partner concentration 90 nM), entry "ATCTCTAGGTAAGACTCAATTCAGTGAAGAACGC"
Solution: 0.199

###

- Tested on: PPARg DBDmut:RXRa IVT, anti-PPARg (DBD mutation: PPARg1 K132A/R137A, NR concentration 270 nM, RXRa partner concentration 90 nM)
- assay.details: PBM binding z-score (relative to random genomic background probes); higher = stronger binding; sequences stand for … in GC…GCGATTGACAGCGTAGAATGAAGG
# PBM binding z-score annotations
Enter the number alone.

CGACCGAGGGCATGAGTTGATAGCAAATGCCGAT : -0.421
CGAACTAGGGCATTGACAGGACAGTGAATAGTAA : 1.42

Exercise: Supply measured PBM binding z-score of "GCGACTGGGGCATCAGCAGGCTACCATAACTTAA" in your reply.
Solution: -0.343

Exercise: Supply measured PBM binding z-score of "CCTAGCAGGTCAGGGTCACTCAAGCATTTCGCTT" in your reply.
Solution: -0.304

Exercise: Supply measured PBM binding z-score of "GATACAGGGTCAGCTAGAGGCTAGAGTATGGAAA" in your reply.
Solution: -0.0888

Exercise: Supply measured PBM binding z-score of "CGTCCAAGATCATAGGAGGTCAGTGAAGACAGAT" in your reply.
Solution: 0.673

###

- System: FXR:RXRa (NR concentration 270 nM, RXRa partner concentration 90 nM)
- assay.details: PBM binding z-score (relative to random genomic background probes); higher = stronger binding; sequences stand for … in GC…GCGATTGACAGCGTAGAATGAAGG
# PBM binding z-score annotations
Enter the number alone.

Below, each entry is followed by its recorded PBM binding z-score result.
TCTTGTAGATCAAGCAGGTTAGGAAAGCCTGAGT : -0.176
CCTATTAGTTGACCATCAGGGCAACCGAAGCTCG : 0.442
TCATATAGGTAATATAGGTGAAAGTCGGCATCTA : 0.703
CCGACCGGGGCAAGGTTACCATAACGCACAGCCA : 0.591
ACTTACGGGTCAACGAGGTTATTGCACGCGTATA : 6.87
TATACAGGGTCAAAGGCCAGAATACGAATGTCGA : 6.57
CCGAGTAGGTTATGAGGCATTCAGGCAACGGTGA : -0.0177
AGTCAAAGTTCATCTAGATAACGTAAGATATGCT : 7.05
CCGACTGGGGCAGAAAGGTTACCTTACCATCCGG : -0.0725
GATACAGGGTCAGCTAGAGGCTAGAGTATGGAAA : 4.9

Exercise: Supply measured PBM binding z-score of "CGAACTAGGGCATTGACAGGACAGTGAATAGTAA" in your reply.
Solution: 0.151

Exercise: Supply measured PBM binding z-score of "TGATTGAGGTTATAAGATCAGGGAACGTTGCAAA" in your reply.
Solution: 1.58

Exercise: Supply measured PBM binding z-score of "CCTAGTTGGTCAATGTCACACACGCTATAGGTAC" in your reply.
Solution: 0.436

Exercise: Supply measured PBM binding z-score of "TCTTGTAGATCAAGCAGGTTATGAAAGCCTGAGT" in your reply.
Solution: 0.147

Exercise: Supply measured PBM binding z-score of "AGAACGAGGGCACGCTGAGTCGATAGCAGAGTAG" in your reply.
Solution: 0.534

Exercise: Supply measured PBM binding z-score of "ATATGTAGATTACATCCGGGTCATTCAGGCTATG" in your reply.
Solution: 1.18

Exercise: Supply measured PBM binding z-score of "CCGACTGGGGCAGAATGGTTACCATACCATCCGG" in your reply.
Solution: -0.449

Exercise: Supply measured PBM binding z-score of "CTCGAATGGTCGGTTGAGGTGAGTATACGGATAA" in your reply.
Solution: 0.27

Exercise: Supply measured PBM binding z-score of "CCTGGTTGGTCAAGGTCACACACGCTATAGGTAC" in your reply.
Solution: 4.28

Exercise: Supply measured PBM binding z-score of "CCTAGCAGTCCAATCTGGGTCACTCAAGGCTTGA" in your reply.
Solution: 0.349

Exercise: Supply measured PBM binding z-score of "AGAACGAGTGCACGCTGAGTTGATAGCAGAGTAG" in your reply.
Solution: -0.478

Exercise: Supply measured PBM binding z-score of "CAAACTAGCTCACAGAGGTCAAAGTCCGTGCGTA" in your reply.
Solution: 4.84

###

- System: PPARg:RXRa 30nM:10nM, anti-RXR (NR concentration 30 nM, RXRa partner concentration 10 nM)
- assay.details: PBM binding z-score (relative to random genomic background probes); higher = stronger binding; sequences stand for … in GC…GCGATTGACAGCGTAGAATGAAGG
So basically, the class depends on measured PBM binding z-score, and the ranges are range 1 (below 0.2), range 2 (0.2 to below 0.8), range 3 (0.8 or more)

Field: example entries. Status: answers known.
ACAGACAGGTGAGTTAAGGTAACTCAGCTGGACG : range 2
AGTCTAAGTTCAGGACGAGGTAACGTAAAGCACG : range 2
ACTATTAGGTGACTTAGGGCAACCGATACGACGC : range 2

Exercise: Categorize the following entry: "TCATATAGTTAATACAGGTGAAAGTCGGCATCTA"
Solution: range 3

Exercise: Categorize the following entry: "TAGCCTAGATCAGATCGGGCCAGTATACGCTATA"
Solution: range 1

Exercise: Categorize the following entry: "ATATATAGGTTATCGGGTCATTCAGTTTGCGCAT"
Solution: range 3

Exercise: Categorize the following entry: "CCAGACAGGAGAGAAGGTAACTCAGCCTCGATTA"
Solution: range 1

Exercise: Categorize the following entry: "ACTTACGGGTCCACGAGGTTATAGCACGCGTATA"
Solution: range 1

Exercise: Categorize the following entry: "TCATATAGGTAAACAGGTAAAAGTCCGTAAGTTA"
Solution: range 3

Exercise: Categorize the following entry: "ATACCAAGGTGATCGTGAGGTCGTTAATACTAAC"
Solution: range 1

###

- Test system: PPARa:RXRa (NR concentration 270 nM, RXRa partner concentration 90 nM)
- assay.details: PBM binding z-score (relative to random genomic background probes); higher = stronger binding; sequences stand for … in GC…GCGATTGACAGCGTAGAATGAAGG
// condition not met strictly below 3 in PBM binding z-score; condition met otherwise

Field: example entries. Status: answers known.
TCTAGTTGGGCAAAGGTCACACACTCGAAATGCG : condition met
ACAGACAGGTGAGTGTAGGTAACTCAGCTGGACG : condition not met
TAGCCTAGGTCATTCATGGGCCAGTATAGAAAGC : condition met
TCTGCTAGGTCAACGATGGTCAGCTACTCTGCTA : condition met
AGAATGAGGTTACCAAAAATCAGGGAAACGCTTG : condition met

Exercise: Assess whether reported PBM binding z-score for "TGAATGAGGTTCAAGATCAGGGAACGTGGCGTCG" sits at 3 or higher.
Solution: condition not met

Exercise: Assess whether reported PBM binding z-score for "CCTCGGAGGACCACAGGAGGTCAGAGCTGCCAGA" sits at 3 or higher.
Solution: condition not met
